The measurements presented in this section are drawn from PubChem BioAssay AID652101.

# assayRemarks: potency against LAMP-1 externalization in TALL-104 – TALL-104 cells, flow cytometry, CherryPick01, dose response (AID 652101);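 note: 0% = stimulated DMSO control and 100% = unstimulated control wells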
# conditionContext: TALL-104 lytic granule exocytosis, LAMP-1 flow cytometry; at 15.1 µM (top of the series); stimulated with 1 µM thapsigargin, 50 nM PMA
Would you please tag the item condition met when its inhibition is 90% or above, and condition not met when it is below?

Could you tell me if the measured inhibition of O=C(Nc1nc2ccc(SC(F)F)cc2s1)c1ccc(NS(=O)(=O)c2ccc(F)c(F)c2)cc1 reaches 90% or more?
condition met

Does the reported inhibition for Nc1c(C(=O)NCc2ccc(F)cc2)c2nc3ccccc3nc2n1CCCN1CCOCC1 fall at or above the 90% mark?
condition not met

Please tell me: is the molecule CCOC(=O)c1ccc(NC(=O)c2ccc(C)c(S(=O)(=O)N3CCOCC3)c2)cc1 at or over 90% in terms of inhibition?
condition met

hey, is inhibition for this one >= 90%? Cc1ccc2nc(-c3ccc(N4C(=O)CC(N5CCN(CCO)CC5)C4=O)cc3)sc2c1 (stereo not given)
condition not met

Test whether the molecule Cn1sc(=O)c2cc(S(=O)(=O)NC3CC3)ccc21 records inhibition of 90% or higher.
condition met

Has CC(=O)Nc1ccc2c(=O)n(-c3ccccc3)sc2c1 a recorded inhibition greater than or equal to 90%?
condition not met

Record N#Cc1c(NC(=O)c2ccc(Br)o2)n(-c2ccccc2)c2nc3ccccc3nc12 ; criterion: inhibition no lower than 90%. Met?
condition not met

Exam item: decide whether the reported inhibition for CN(C)CCNC(=O)c1ccc(-c2cn3c(-c4ccc(Oc5ccccc5)cc4)cnc3cn2)cc1 is at least 90%.
condition not met

Can CCCCN(CCCC)c1nc(-c2ccncc2)nc2ccccc12 be said to have inhibition at or above 90%?
condition not met

====

# assayRemarks: potency against LAMP-1 externalization in TALL-104 – TALL-104 cells, flow cytometry, CherryPick01, dose response (AID 652101);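 note: 0% = stimulated DMSO control and 100% = unstimulated control wells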
# conditionContext: TALL-104 lytic granule exocytosis, LAMP-1 flow cytometry; at 15.1 µM (top of the series); stimulated with 1 µM thapsigargin, 50 nM PMA
Kindly return Criterion met if reported inhibition is no lower than 90%; return Criterion not met if it is lower.

Is inhibition for OCCN1CCN(CC(O)COc2ccc(C34CC5CC(CC(C5)C3)C4)cc2)CC1 (stereo not given) at or above 90%?
Criterion not met

Exam item: decide whether the reported inhibition for O=C(COC(=O)[C@H](Cc1c[nH]c2ccccc12)NC(=O)c1ccc(Cl)cc1)Nc1ccc2c(c1)OCO2 is at least 90%.
Criterion met

Record Cn1c(=O)c(N)c2c3c(c(Br)ccc31)C(=O)c1ccccc1-2 ; criterion: inhibition no lower than 90%. Met?
Criterion not met

In plain terms: is recorded inhibition at least 90% for COc1ccc([N+](=O)[O-])cc1Nc1c2ccccc2nc2ccccc12 ?
Criterion not met

Can Cn1cncc1C#Cc1c(-c2ccc(S(C)(=O)=O)cc2)sc2ccccc12 be said to have inhibition at or above 90%?
Criterion met

====

Answer each item with its documented inhibition.
# assayRemarks: potency against LAMP-1 externalization in TALL-104 – TALL-104 cells, flow cytometry, CherryPick01, dose response (AID 652101);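 note: 0% = stimulated DMSO control and 100% = unstimulated control wells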
# conditionContext: TALL-104 lytic granule exocytosis, LAMP-1 flow cytometry; at 15.1 µM (top of the series); stimulated with 1 µM thapsigargin, 50 nM PMA
Use % as the unit, but write only the number.

Sample CSc1cccc(NC(=S)N(CCCN2CCCC2)Cc2cccn2Cc2ccc(Cl)cc2)c1 ; inhibition observed: 65.2

compound Cc1ccc2nc(-c3ccc(NC(=S)NC4CC(C)(C)NC(C)(C)C4)cc3)sc2c1 , inhibition observed: 5.48

The measured inhibition associated with O=c1c2ccc(F)cc2sn1-c1ccccc1 reads 75.9

Please fill in: inhibition reported for Oc1ccccc1Nc1nc(NCc2ccccc2)c2ccccc2n1 = 90.6

Entry O=C(Nc1nc(-c2ccccc2)cs1)c1ccc2c(=O)n3c(nc2c1)CCCCC3 — recorded inhibition = 74.2

Value of inhibition reported for the compound CN(c1ccccc1)S(=O)(=O)c1cccc(C(=O)NCCc2c[nH]c3ccccc23)c1 is 42.1
